Where do these numbers come from? They come from patent US12421210B2.

studySystem: human NAMPT enzyme (His-hNAMPT) (Homo sapiens (Human))
Sequence (P43490 whole entry): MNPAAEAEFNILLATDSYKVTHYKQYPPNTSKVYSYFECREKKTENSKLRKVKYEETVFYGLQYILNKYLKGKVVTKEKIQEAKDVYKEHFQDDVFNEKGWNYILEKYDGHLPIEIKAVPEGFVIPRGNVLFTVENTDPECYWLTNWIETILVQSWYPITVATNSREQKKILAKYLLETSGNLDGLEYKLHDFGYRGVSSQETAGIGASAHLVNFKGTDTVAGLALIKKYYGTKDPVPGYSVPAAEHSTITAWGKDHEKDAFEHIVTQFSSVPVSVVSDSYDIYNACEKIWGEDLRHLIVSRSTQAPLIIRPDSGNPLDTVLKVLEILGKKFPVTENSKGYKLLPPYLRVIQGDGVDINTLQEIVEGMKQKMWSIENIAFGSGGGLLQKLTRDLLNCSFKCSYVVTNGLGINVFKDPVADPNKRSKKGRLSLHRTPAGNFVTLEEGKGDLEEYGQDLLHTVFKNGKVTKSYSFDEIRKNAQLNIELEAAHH
assayText: NAMPT enzymatic inhibition assay (fluorescence, NADH product)
Assay type: biochemical
conditions: [BPS]; read-out: NAMPT IC50 (μM) [BPS]

compound: CC(C)(C)OC(=O)N1C[C@@H]2[C@@H](CCNC(=O)/C=C/c3cccnc3)[C@@H]2C1 [Example 1]
IC50: < 0.01 µM

compound: Nc1ccc(/C=C/C(=O)NCC[C@@H]2[C@H]3CN(C(=O)N4CCCC4)C[C@@H]23)cn1 [Example 39]
IC50: 0.01 to 0.49 µM

compound: CC(C)(C)OC(=O)N1C[C@@H]2[C@@H](CNC(=O)c3cc(-c4cccnc4)on3)[C@@H]2C1 [Example 231]
IC50: 1 to 29 µM

compound: CC1(OC(=O)N2C[C@@H]3[C@@H](CCNC(=O)c4cnc5nccn5c4)[C@@H]3C2)COC1 [Example 43]
IC50: 0.01 to 0.49 µM

compound: Nc1ccc(/C=C/C(=O)NCC[C@@H]2[C@H]3CN(S(=O)(=O)c4ccccc4)C[C@@H]23)cn1 [Example 45]
IC50: 0.01 to 0.49 µM

compound: Nc1ccc(/C=C/C(=O)NCC[C@@H]2[C@H]3CN(C(=O)c4ccc(C(=O)O)cc4)C[C@@H]23)cn1 [Example 179]
IC50: 1 to 29 µM

compound: CC(C)(C)OC(=O)N1C[C@@H]2[C@@H](CCNC(=O)c3nc4ccncc4s3)[C@@H]2C1 [Example 11]
IC50: 0.5 to 0.99 µM
